Give Mean fluorescence intensity for every item shown.
Target: T1, human LAG-3 on cells (HEK293-hLAG-3 stable cell line) (human, UniProt P18627 23-525)
T1 sequence: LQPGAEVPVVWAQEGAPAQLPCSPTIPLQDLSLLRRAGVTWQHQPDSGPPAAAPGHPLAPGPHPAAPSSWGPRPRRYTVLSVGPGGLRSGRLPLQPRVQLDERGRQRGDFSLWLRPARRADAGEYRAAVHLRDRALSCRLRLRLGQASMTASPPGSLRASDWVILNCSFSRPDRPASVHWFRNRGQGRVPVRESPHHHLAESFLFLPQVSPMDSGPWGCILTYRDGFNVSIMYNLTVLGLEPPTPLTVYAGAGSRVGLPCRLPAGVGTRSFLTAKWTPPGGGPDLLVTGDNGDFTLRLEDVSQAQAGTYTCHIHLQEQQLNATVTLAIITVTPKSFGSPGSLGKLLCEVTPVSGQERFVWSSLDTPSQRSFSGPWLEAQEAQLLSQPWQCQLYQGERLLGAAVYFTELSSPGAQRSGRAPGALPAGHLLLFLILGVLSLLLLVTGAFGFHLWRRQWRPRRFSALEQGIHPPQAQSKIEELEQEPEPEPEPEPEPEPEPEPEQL
Test: FACS, HEK293-hLAG-3, antibody 0 nM
Please state the value as a number alone, without comment.

Consider the binder 405B8H3-8 humanized antibody (antibody, V domains shown) VH: QVQLVQSGAEVKKPGASVKVSCKASGYTFTDYEMHWVKQAPGQGLEWIGATDPETGNSAYNQKFKGKATMTADKSTSTAYMELSSLRSEDTAVYYCISTGWNDWGQGTTVTVSS VL: DIQMTQSPSSLSASVGDRVTITCKASQDINSYLSWFQQKPGKAPKSLIYRADRLLDGVPSRFSGSGSGQDYTLTISSLQPEDFATYYCLQYDEFPYTFGQGTKLEIK . State its measured Mean fluorescence intensity. 4

Consider the binder 405B8H3-10 humanized antibody (antibody, V domains shown) VH: QVQLVQSGAEVKKPGASVKVSCKASGYTFTDYEMHWVRQAPGQGLEWMGATDPETGNSAYNQKFKGRVTMTADKSTSTVYMELSSLRSEDTAVYYCISTGWNDWGQGTTVTVSS VL: DIKMTQSPSSLSASVGDRVTITCKASQDINSYLSWFQQKPGKSPKSLIYRADRLLDGVPSRFSGSGSGQDYTLTISSLQPEDFATYYCLQYDEFPYTFGQGTKLEIK . State its measured Mean fluorescence intensity. 4
